test: reduction of polyQ htt aggregates in cells – imaging, exon1htt(103Q)mCFP cells, high-content imaging, primary screen (AID 483); conditions: exon1htt(103Q)mCFP cell line, aggregate imaging, at 2 µM; measured here: cell count, toxicity;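 note: compound exposure lasted 3 days before fixation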
Could you label it Condition met if measured nuclei count is 90% or higher, and Condition not met otherwise?

In [3]: df
Out[3]:
                                    molecule                cat
 0  COc1ccccc1CCNC(=O)C1CCCO1 (stereo not given)      Condition met
 1  O=C1CCN(C(=O)c2ccccc2)C2CCCCC12 (stereo not given)  Condition not met
 2    Cn1cccc1Cc1nnc(SCC(N)=O)n1-c1ccc(F)cc1      Condition met
 3   CSc1ccccc1NC(=O)CN(Cc1ccccc1)S(C)(=O)=O      Condition met
 4  O=C(NCC1CCCO1)c1ccc(N2CCCCC2)nc1 (stereo not given)      Condition met
 5    COc1cc(OC)cc(-n2nnnc2SCC(=O)N2CCCC2)c1      Condition met
 6  CCOc1ccc(N(CC(=O)NC2CCCC2)S(=O)(=O)c2c(C)[nH]c(=O)[nH]c2=O)cc1      Condition met
 7                c1ccc(Cn2nnnc2CN2CCCC2)cc1      Condition met
 8  Cc1ccc2nc(-c3ccc(S(=O)(=O)N4CCOCC4)cc3)cn2c1      Condition met
 9  COCCCN1C(=O)C(=O)/C(=C(/O)c2ccc(OC)cc2)C1c1ccc(O)c(OC)c1 (stereo not given)      Condition met
10  COc1cc2c(cc1OC)CN(Cc1nc3ccsc3c(=O)[nH]1)CC2      Condition met
11  O=C(CSc1nc(C2CCCCC2)n(-c2ccccc2)n1)NCCN1C(=O)CSC1=O      Condition met
12  Cc1cc(NC(=O)CSc2nnc(COc3cccc(C)c3C)n2Cc2ccco2)no1      Condition met
13  COc1ccc(Cl)c(NC(=O)NCCN2CCN(c3ccccc3)CC2)c1      Condition met
14  COc1ccc(NC(=O)C23CCC(C)(C(=O)C2)C3(C)C)cc1 (stereo not given)      Condition met
15      Cc1sc2ncnc(Oc3ccc(-n4ccnc4)cc3)c2c1C      Condition met
16  CN1CCN(c2nc3c(c(=O)[nH]c(=O)n3C)n2CCOc2ccccc2)CC1      Condition met
17  CC(C)CC(c1nnnn1C(C)(C)C)N1CCN(C2CCCC2)CC1 (stereo not given)      Condition met
18  Cc1nn(-c2ccccc2)c2c1C(O)n1c(nc3ccccc31)S2 (stereo not given)  Condition not met
19  O=C(Cn1cnc2ccccc2c1=O)NCCC(=O)N1CCN(Cc2ccccc2)CC1  Condition not met
20  Cc1cnc(C(=O)Nc2ccc(N3CCN(C(=O)OC(C)(C)C)CC3)cc2)cn1  Condition not met
21        O=C(c1cnc2sccn2c1=O)N1CCc2ccccc2C1  Condition not met
22  O=C(O)CCc1ccc(-c2cccs2)n1NC(=O)c1ccccc1Br      Condition met
23  O=C(NCc1ccc2c(c1)OCO2)C1CCC(CNc2c(N3CCCCC3)c(=O)c2=O)CC1 (stereo not given)      Condition met
24             CCCOc1ccccc1NC(=O)c1ccc(N)cc1      Condition met
25  O=C(COc1ccccc1)Nc1ccccc1N1CCN(c2ccccc2)CC1  Condition not met
26      O=C(COC(=O)c1cnccn1)Nc1ccc2c(c1)OCO2      Condition met
27  CCC(=O)N1CCN(CCN=CC2=C(O)CC(C)(C)CC2=O)CC1      Condition met
28           C#CCSc1nnc(-c2ccccc2)c(=O)[nH]1      Condition met
29  CC(=O)Nc1ccc(S(=O)(=O)N(C2=NCC(C)S2)c2ccccc2)cc1 (stereo not given)      Condition met
30    COc1cc(Cn2c(-c3nonc3N)nc3ccccc32)ccc1C  Condition not met
31     O=C(CSCc1cccc(F)c1)N1CCN(c2ccccc2)CC1  Condition not met
32            CN(C)CCNc1oc(-c2ccccc2F)nc1C#N      Condition met
33  CC1(C(=O)NC2CCCCC2)CCC(=O)N1Cc1cccs1 (stereo not given)      Condition met
34  CCCOc1ccc(/C(O)=C2/C(=O)C(=O)N(CCCOC)C2c2ccncc2)cc1 (stereo not given)      Condition met
35  CCN(CC)C(=O)C1CCN(CC2CC=CCC2)CC1 (stereo not given)      Condition met
36                   COC(=O)c1ccnc(/C=N/O)c1      Condition met
37  CC(C(=O)OCn1nnc2ccccc2c1=O)N1C(=O)c2ccccc2C1=O (stereo not given)  Condition not met
38  Cc1ccc(-c2cc(C(F)F)n3ncc(C(=O)N4CCN(c5ccccn5)CC4)c3n2)cc1  Condition not met
39  Cc1ccc2c(c1)c1c3n2CC(=C2C(=O)OC(C)(C)OC2=O)NC3CCC1 (stereo not given)  Condition not met
